experiment notes: xn = mol fraction of the nth substance listed, in the solute-free solvent
cond: 318.15 K; x2 = 0.3
experimental readout: solubility (g/100 g solution)

- compound: "O=C(O)c1ccc(C(=O)O)o1 + C1COCCO1 + O"
  experimental readout: "solubility (g/100 g solution)"
  value observed: 4.76
- compound: "O=C1CCc2ccc(OCCCCN3CCN(c4cccc(Cl)c4Cl)CC3)cc2N1 + CCC(C)=O + CC(C)=O"
  experimental readout: "solubility (g/100 g solution)"
  value observed: 4.62
- compound: "O=C1CCc2ccc(OCCCCN3CCN(c4cccc(Cl)c4Cl)CC3)cc2N1 + CCC(C)=O + CCCO"
  experimental readout: "solubility (g/100 g solution)"
  value observed: 5.5
- compound: "CC(=O)OC(c1ccccc1)C(Cl)(Cl)Cl (centres undefined) + CC(C)O + O"
  experimental readout: "solubility (g/100 g solution)"
  value observed: 3.53
- compound: "O=C1CCc2ccc(OCCCCN3CCN(c4cccc(Cl)c4Cl)CC3)cc2N1 + CCC(C)=O + CCOC(C)=O"
  experimental readout: "solubility (g/100 g solution)"
  value observed: 3.24
- compound: "COC1=CC(=O)CC(C)C12Oc1c(Cl)c(OC)cc(OC)c1C2=O (centres undefined) + CC(=O)CC(C)C + CC(C)O"
  experimental readout: "solubility (g/100 g solution)"
  value observed: 1.11
- compound: "CCCCOc1ccc(C(=O)CCN2CCCCC2)cc1.Cl + CCO + CCOC(C)=O"
  experimental readout: "solubility (g/100 g solution)"
  value observed: 24.8
- compound: "CCCCOc1ccc(C(=O)CCN2CCCCC2)cc1.Cl + CO + C1CCOC1"
  experimental readout: "solubility (g/100 g solution)"
  value observed: 27.4
- compound: "O=C(O)c1ccc(C(=O)O)o1 + O + COCCOCCOC"
  experimental readout: "solubility (g/100 g solution)"
  value observed: 3.23
